# collection of IC50 values tested on Acetylcholinesterase (Electrophorus electricus)
Dear colleague, please return just the value in µM, with no unit written.

Recorded results for 3 compounds are shown here.
{"columns": ["compound", "IC50 / µM"],
 "data": [
  ["C[C@H]1CC[C@@H]2[C@@H](C)[C@@H]3CC[C@@H]4[C@@H](C[C@H]5[C@H]4C[C@@H](O)[C@H]4C[C@@H](O)CC[C@@]45C)[C@@H]3CN2C1", 5.85],
  ["C[C@H]1CC[C@H]2[C@H](C)[C@@H]3CC[C@@H]4[C@@H](C[C@H]5[C@H]4CC(=O)[C@H]4C[C@@H](O[C@@H]6O[C@H](CO)[C@@H](O)[C@H](O)[C@H]6O)CC[C@@]45C)[C@@H]3CN2C1", 11.5],
  ["C=C1C2(CC[C@H]3[C@@H]4CC(=O)[C@H]5C[C@@H](O)CC[C@]5(C)[C@H]4C[C@@]13O)O[C@@H]1C[C@H](C)CN[C@H]1[C@H]2C (stereo not given in full)", 7.6]
]}

For the next question, use this compound.
# input Param readout= IC50; system= Acetylcholinesterase (Electrophorus electricus); entry= C[C@H]1CC[C@H]2[C@H](C)[C@@H]3CC[C@@H]4[C@@H](C[C@H]5[C@H]4CC(=O)[C@H]4C[C@@H](O)CC[C@@]45C)[C@@H]3CN2C1 ; returns value.
# output 8.37

====

molecular target: Acetylcholinesterase (Electrophorus electricus, UniProt O42275)
Sequence (O42275 whole entry): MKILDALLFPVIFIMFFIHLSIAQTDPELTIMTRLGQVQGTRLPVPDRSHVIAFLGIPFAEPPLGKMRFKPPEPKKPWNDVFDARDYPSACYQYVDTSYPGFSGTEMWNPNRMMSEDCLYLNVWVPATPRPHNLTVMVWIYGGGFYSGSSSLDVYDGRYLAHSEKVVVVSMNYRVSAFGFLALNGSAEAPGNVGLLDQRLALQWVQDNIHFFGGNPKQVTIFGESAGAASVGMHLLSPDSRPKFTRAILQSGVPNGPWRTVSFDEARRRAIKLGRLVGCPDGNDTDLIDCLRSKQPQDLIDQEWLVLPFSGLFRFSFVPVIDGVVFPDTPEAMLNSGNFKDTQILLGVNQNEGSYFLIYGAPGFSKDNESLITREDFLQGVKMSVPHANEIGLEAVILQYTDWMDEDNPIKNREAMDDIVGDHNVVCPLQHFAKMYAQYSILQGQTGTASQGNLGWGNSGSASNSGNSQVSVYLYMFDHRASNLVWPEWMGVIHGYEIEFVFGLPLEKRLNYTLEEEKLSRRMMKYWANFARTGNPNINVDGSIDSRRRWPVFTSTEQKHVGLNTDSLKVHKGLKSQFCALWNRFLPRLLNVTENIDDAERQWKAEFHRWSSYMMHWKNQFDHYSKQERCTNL
Kindly apply the following: Met if IC50 is less than 10 µM, Not met in every other case.

# input Dear reviewer, please state whether C[C@H]1CC[C@@H]2[C@@H](C)[C@@H]3CC[C@@H]4[C@@H](C[C@H]5[C@H]4C[C@@H](O)[C@H]4C[C@@H](O[C@@H]6O[C@H](CO)[C@@H](O)[C@H](O)[C@H]6O)CC[C@@]45C)[C@@H]3CN2C1 has IC50 strictly beneath 10 µM.
# output Not met

# input Field: below-cutoff. Rule: recorded IC50 strictly less than 10 µM. Subject: C[C@H]1CC[C@@H]2[C@@H](C)[C@@H]3CC[C@@H]4[C@@H](C[C@H]5[C@H]4C[C@H](O)[C@H]4C[C@@H](O)CC[C@@]45C)[C@@H]3CN2C1
# output Met

# input # strict comparison: is reported IC50 < 10 µM? input = C[C@H]1CC[C@H]2[C@H](C)[C@H]3CC[C@@H]4[C@@H](C[C@H]5[C@H]4C[C@@H](O)[C@H]4C[C@@H](O)CC[C@@]45C)[C@@H]3CN2C1
# output Not met

# input Input CC1=C2C[C@H]3[C@@H](CC(=O)[C@H]4C[C@@H](O)CC[C@@]43C)[C@@H]2CCC12O[C@@H]1C[C@H](C)CN[C@H]1[C@H]2C (stereo not given in full) ; condition: IC50 strictly below 10 µM. Does it hold?
# output Not met

====

target: Cholinesterase (Equus caballus, UniProt P81908); assay: Inhibition of equine serum BChE using butyrylthiocholine iodide as substrate preincubated for 15 mins followed by substrate addition measured for 30 mins by Ellman's method
Sequence (P81908 whole entry): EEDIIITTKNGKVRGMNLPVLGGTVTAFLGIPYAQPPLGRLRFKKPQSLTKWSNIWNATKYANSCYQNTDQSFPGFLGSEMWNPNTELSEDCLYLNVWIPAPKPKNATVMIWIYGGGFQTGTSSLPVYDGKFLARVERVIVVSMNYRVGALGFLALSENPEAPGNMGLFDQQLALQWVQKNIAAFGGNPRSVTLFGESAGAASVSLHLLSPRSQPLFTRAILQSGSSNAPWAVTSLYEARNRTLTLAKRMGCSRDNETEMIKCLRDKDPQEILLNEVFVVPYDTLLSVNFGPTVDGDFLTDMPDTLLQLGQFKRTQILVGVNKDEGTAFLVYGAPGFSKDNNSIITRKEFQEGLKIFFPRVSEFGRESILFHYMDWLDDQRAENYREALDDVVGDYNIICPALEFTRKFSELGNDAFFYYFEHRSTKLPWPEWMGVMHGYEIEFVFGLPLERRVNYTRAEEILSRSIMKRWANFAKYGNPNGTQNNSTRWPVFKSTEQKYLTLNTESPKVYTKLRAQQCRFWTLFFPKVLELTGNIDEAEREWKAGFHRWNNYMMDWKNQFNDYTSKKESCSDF
Threshold-based label: IC50 under 6 µM gives True, IC50 not under 6 µM gives False.

Past entries and their recorded results:
{"columns": ["molecule", "qualitative.label"],
 "data": [
  ["C[C@H]1CC[C@@H]2N(C1)C[C@H]1[C@@H]3C[C@H]4[C@@H](CC(=O)[C@H]5C[C@@H](O)CC[C@@]54C)[C@@H]3CC[C@H]1[C@]2(C)O", "False"],
  ["C[C@H]1CC[C@H]2[C@H](C)[C@@H]3CC[C@@H]4[C@@H](C[C@H]5[C@H]4CC(=O)[C@H]4C[C@@H](O)CC[C@@]45C)[C@@H]3CN2C1", "True"],
  ["C=C1C2(CC[C@H]3[C@@H]4CC(=O)[C@H]5C[C@@H](O)CC[C@]5(C)[C@H]4C[C@@]13O)O[C@@H]1C[C@H](C)CN[C@H]1[C@H]2C (some centres not stated)", "False"],
  ["CC1=C2C[C@H]3[C@@H](CC(=O)[C@H]4C[C@@H](O)CC[C@@]43C)[C@@H]2CCC12O[C@@H]1C[C@H](C)CN[C@H]1[C@H]2C (some centres not stated)", "False"],
  ["C[C@H]1CC[C@@H]2[C@@H](C)[C@@H]3CC[C@@H]4[C@@H](C[C@H]5[C@H]4C[C@@H](O)[C@H]4C[C@@H](O[C@@H]6O[C@H](CO)[C@@H](O)[C@H](O)[C@H]6O)CC[C@@]45C)[C@@H]3CN2C1", "True"]
]}

Continue with the next molecule.
# input # TODO verify IC50 < 6 µM strictly for this molecule: C[C@H]1CC[C@@H]2[C@@H](C)[C@@H]3CC[C@@H]4[C@@H](C[C@H]5[C@H]4C[C@H](O)[C@H]4C[C@@H](O)CC[C@@]45C)[C@@H]3CN2C1
# output True

====

biological target: Acetylcholinesterase (Electrophorus electricus, UniProt O42275); assay: Inhibition of electric eel AChE using acetylthiocholine iodide as substrate preincubated for 15 mins followed by substrate addition measured for 30 mins by Ellman's method
measurement.kind: pIC50
pIC50 here: minus log base 10 of the concentration, concentration in moles per litre.

# input pIC50 for C[C@H]1CC[C@@H]2[C@@H](C)[C@@H]3CC[C@@H]4[C@@H](C[C@H]5[C@H]4C[C@H](O)[C@H]4C[C@@H](O[C@@H]6O[C@H](CO)[C@@H](O)[C@H](O)[C@H]6O)CC[C@@]45C)[C@@H]3CN2C1 ?
# output 4.29

====

test: Selectivity index, ratio of IC50 for equine serum BChE to IC50 for electric eel AChE
Where Ratio IC50 equals or exceeds 0.6, the correct label is Yes; where it does not, the label is No.

{"columns": ["compound", "qualitative.label"],
 "data": [
  ["CC1=C2C[C@H]3[C@@H](CC(=O)[C@H]4C[C@@H](O)CC[C@@]43C)[C@@H]2CCC12O[C@@H]1C[C@H](C)CN[C@H]1[C@H]2C (stereo not given in full)", "Yes"]
]}

# input Could you verify whether the entry C[C@H]1CC[C@@H]2[C@@H](C)[C@@H]3CC[C@@H]4[C@@H](C[C@H]5[C@H]4C[C@H](O)[C@H]4C[C@@H](O[C@@H]6O[C@H](CO)[C@@H](O)[C@H](O)[C@H]6O)CC[C@@]45C)[C@@H]3CN2C1 shows Ratio IC50 of no less than 0.6?
# output No

# input Could you please find out whether C[C@H]1CC[C@@H]2[C@@H](C)[C@@H]3CC[C@@H]4[C@@H](C[C@H]5[C@H]4C[C@@H](O)[C@H]4C[C@@H](O)CC[C@@]45C)[C@@H]3CN2C1 has Ratio IC50 that meets 0.6 or exceeds it?
# output No

# input Test whether the compound C[C@H]1CC[C@@H]2[C@@H](C)[C@@H]3CC[C@@H]4[C@@H](C[C@H]5[C@H]4C[C@@H](O)[C@H]4C[C@@H](O[C@@H]6O[C@H](CO)[C@@H](O)[C@H](O)[C@H]6O)CC[C@@]45C)[C@@H]3CN2C1 records Ratio IC50 of 0.6 or higher.
# output No

# input Please check the record C[C@H]1CC[C@H]2[C@H](C)[C@H]3CC[C@@H]4[C@@H](C[C@H]5[C@H]4C[C@@H](O)[C@H]4C[C@@H](O)CC[C@@]45C)[C@@H]3CN2C1 and state if its Ratio IC50 is at or above 0.6.
# output No

# input Quick check, Ratio IC50 >= 0.6? C=C1C2(CC[C@H]3[C@@H]4CC(=O)[C@H]5C[C@@H](O)CC[C@]5(C)[C@H]4C[C@@]13O)O[C@@H]1C[C@H](C)CN[C@H]1[C@H]2C (stereo not given in full)
# output Yes

# input Hi team, for C[C@H]1CC[C@H]2[C@H](C)[C@@H]3CC[C@@H]4[C@@H](C[C@H]5[C@H]4CC(=O)[C@H]4C[C@@H](O[C@@H]6O[C@H](CO)[C@@H](O[C@@H]7O[C@H](CO)[C@@H](O)[C@H](O)[C@H]7O)[C@H](O)[C@H]6O)CC[C@@]45C)[C@@H]3CN2C1 , is the recorded Ratio IC50 at or above 0.6?
# output No

# input Would you say C[C@H]1CC[C@@H]2[C@@H](C)[C@@H]3CC[C@@H]4[C@@H](C[C@H]5[C@H]4C[C@H](O)[C@H]4C[C@@H](O)CC[C@@]45C)[C@@H]3CN2C1 shows Ratio IC50 at minimum 0.6?
# output No

# input Does the reported Ratio IC50 for C[C@H]1CC[C@H]2[C@H](C)[C@@H]3CC[C@@H]4[C@@H](C[C@H]5[C@H]4CC(=O)[C@H]4C[C@@H](O)CC[C@@]45C)[C@@H]3CN2C1 fall at or above the 0.6 mark?
# output No
